# System under test: MBP-tagged split mFAP fragment m12
# Protocol text: other fluorescence titration; MBP-tagged fragment titrated into its complementary MBP-tagged fragment; 25.0 uM DFHBI-1T; high-salt Tev cleavage buffer (25.0 mM Tris, 100 mM NaCl, pH 8.00); ex 468 nm, em 530 nm; estimated Kd, signal did not plateau
pKd: −log10 of the molar value.
Reported property: pKd

Lookup: // pKd lookup, key: MBP-tagged split mFAP fragment m38 (domain or fragment, here or on the partner: strands 3-8; cut assumed in loop2 (34/35); MBP omitted / strands 1-2 of mFAP2a; cut assumed in loop2 (34/35, as in cp35-34); exact limits are in Supplementary Data 1, not shown; MBP omitted) YTMDIVAQGTISDGRPIVGYGKATVKTPDTLDIDITYPSLGNIKAQGQITMDSPTQFKWDATTKGENDFHGRLTGTLQRQE
Found: < 3.55
